Attribution: the array DNA melting data of Ke et al. (doi:10.1101/2024.01.08.574731)

Consider the following sequences; for each one, report its folding enthalpy.
method-notes: folding enthalpy; higher = less favourable; fluorescence melt of hairpins on a sequencing array, two-state fit
assay-setup: sodium 0.088 M
The reply should be a number in kcal/mol, with the unit left off.

Quick check: folding enthalpy of GCTTGCGGAAACGTAGGC ((.(.((....)).).)) ?
-11.7

Another sequence to look at: GATCCTTGTAGGATC ((((((...))))))
-34.4

Same read-out for GATCCCATGCGGGATC ((((((....)))))) ?
-34

Subsequent entry: GATGCAGGAAACTGTGTC ((..(((....)))..))
-27.1

Another sequence: GTCTAGTCGAAAGACGAC (((..(((....))))))
-14.3

Now the sequence GCACGACGAAAGTCTTGC (((.(((....))).)))
-35.8

Same lookup for GCACGTGGAAACACGTAC (.(((((....))))).) , please.
-14.2

Okay, and GATCCATGGGTGGATC ((((((....)))))) ?
-41.4

Record: GATCCAGGCGTGGATC ((((((....))))))
-40.9

Another sequence: GCCCTGCGAAAGCGGTGC ((.(.((....)).).))
-20.2

Param item: GATCACGAGTGTGATC ((((((....))))))
-37.7

Same lookup for GACGACCGAAAGGTAGTC (((.(((....))).))) , please.
-38.6

Also check GTTCTGGGAAACCAGGAC ((.((((....)))).))
-31.8

Same for GGTCGACGAAAGTCCACC (((.(((....))).)))
-25.6

Please answer likewise for GCTGCAGGAAACTGCAAC (.(((((....))))).)
-13.5

And the next one, GCCCAGCGAAAGCTTCGC ((..(((....)))..)) ?
-6.41

Then GTGACCGAAAGGTTCAC ((((((....))).))) ?
-29.5

Let us now turn to GGTATTACGAAAGTAACC (((..(((....))))))
-13.4

====

method-notes: folding enthalpy; higher = less favourable; fluorescence melt of hairpins on a sequencing array, two-state fit
assay-setup: sodium 0.088 M
Would you please tag the item TRUE when its folding enthalpy is -20 kcal/mol or above, and FALSE when it is below?

Confirm if folding enthalpy reported for the sequence GGGGACGAAAGTCGCCCC ((((((....)))..))) is -20 kcal/mol or above.
TRUE

Entry CGTCGTCGGAAACGAACG (((..(((....)))))) please
FALSE

Now this one: GATCCTATAAGGATC ((((((...))))))
FALSE

Now consider GTTTACGGAAACGTAAGC (.(((((....))))).) and answer again.
FALSE

Would you kindly repeat that for GATTGCGAAAGCAAATC ((((((....))).))) ?
TRUE

Now consider GCCGCCGAAAGGCTAGGC ((((((....)))..))) .
FALSE

Check GAATAACGAAAGTTTTTC (((.(((....))).))) too.
FALSE

Again, but for GCCCCACGAAAGTGAGGC (((.(((....))).)))
FALSE

Next entry: GTTTCCGAAAGGAGAAAC ((((((....)))..)))
TRUE

What about this sequence? GTTCTAGGAAACTAGGAC ((.((((....)))).))
FALSE

Another sequence to check: CTTTCGAAAGAAAG (((((....)))))
TRUE

Would you mind doing GTTACCGAAAGGTGTAAC ((((((....)))..))) as well?
TRUE

Try GCCATCGAAAGATGGGC ((((((....))).))) next.
TRUE

Also GCAGAACGAAAGTTTTGC (((.(((....))).))) ?
FALSE

GTCTTCGGAAACGAGGAC (((.(((....))).))) , same question.
FALSE

How about GTTACCGAAAGGTAAC ((((((....)))))) ?
FALSE

What do you get for GATACAGGAAACTGTACC (.(((((....))))).) ?
TRUE

Now the same for GCCTGGGGAAACCCAAGC ((.((((....)))).))
FALSE

====

method-notes: folding enthalpy; higher = less favourable; fluorescence melt of hairpins on a sequencing array, two-state fit
assay-setup: sodium 0.088 M
quantity: folding enthalpy (kJ/mol)
Just the number in kJ/mol, nothing appended.

Can you share its folding enthalpy? I mean this sequence: CGATCGGAAACGAAATCG ((((((....)))..)))
-93.1

Query GGGACACGAAAGTGCCC (((.(((....)))))) next
-101

Same question for GTGTAGGGAAACCCACAC ((((.((....)).)))) please.
-103

Next up: GGAATCGAAAGATGATCC ((((((....)))..)))
-74.3

Would you kindly repeat that for GCTGCAGCGAAAGCTAGC (((..(((....)))))) ?
-49.7

Consider next the sequence GGAAAGGCGAAAGCCTCC (((..(((....)))))) in the same way.
-44.4

Likewise for GCGCACGGAAACATGCGC (((((.(....).))))) ?
-157

====

method-notes: melting temperature; fluorescence melt of hairpins on a sequencing array, two-state fit, raised by 9.35 °C to match UV melts
assay-setup: sodium 0.088 M
Exercise: state measured Tm for each of the sequences provided.
// note: answer is a bare numeric in °C

Tell me the measured Tm of GTACTTGGAAACAAGCAC ((.((((....)))).)) , please.
37.8

Let us now turn to GATCAACATATTGATC ((((((....))))))
42.6

Further, for GCTCTTGAAAAAGAGC ((((((....)))))) ?
58.1

Next sequence: GACTAAGGAAACTTAGTC (((((((....)))))))
52.5

And what about the sequence GTTTCACGAAAGTGCAAC (((.(((....))).))) ?
41.1

What do you get for GCTGACCGAAAGGTAAGC (((.(((....))).))) ?
57.8

Another sequence to check: GCTCTCGAAAGAGAAGC ((((((....))).)))
49.8

Also GATCACGCGAGTGATC ((((((....)))))) ?
68.8

Proceed to GGAGCAGGAAACTGCTCC (((((((....)))))))
69.1

Another sequence to check: GATCTGCTGGCAGATC ((((((....))))))
62.5

Could you do the same for GATTACGAAAGTATAATC ((((((....)))..))) , please?
27.1

====

Give measured folding enthalpy for each item. Keep answers brief.
method-notes: folding enthalpy; higher = less favourable; fluorescence melt of hairpins on a sequencing array, two-state fit
assay-setup: sodium 0.088 M
Numbers only; they are read as kcal/mol.

Entry GCTAATGGAAACATTGGC ((.((((....)))).)) has what folding enthalpy?
-41.2

Okay, and GCGGCTTCGAAAGAACGC (((..(((....)))))) ?
-21.4

Now this one: GACGGGGGAAACTCCGTC (((((.(....).)))))
-37.9

Can you check GTCCCACGAAAGTGCGAC (((.(((....))).))) next?
-24.9

Follow-up entry: GTTGTCTCGAAAGAGAAC (((..(((....))))))
-22.2

Please give the result for GATCCTGTTCAGGATC ((((((....)))))) too.
-39.1

What about this sequence? GTAGCGGCGAAAGCCTAC (((..(((....))))))
-10.4

====

method-notes: folding enthalpy; higher = less favourable; fluorescence melt of hairpins on a sequencing array, two-state fit
assay-setup: sodium 0.088 M
quantity: folding enthalpy

// query folding enthalpy value for entry GATCCAGATTGGATC ((((((...))))))
-34.1 kcal/mol

Here is the next sequence: GGTGTGGGAAACTGCACC ((((..(....)..))))
-26.3 kcal/mol

Same again, this time with GATCGTGGTTACGATC ((((((....))))))
-40.3 kcal/mol

Moving on to the next sequence: GCGGCTTCCCGC ((((....))))
-26.3 kcal/mol

Likewise for GTGAACCGAAAGGTCCAC (((.(((....))).))) ?
-24.6 kcal/mol

Next record, please: GAGTCCGAAAGGAACTC ((((((....))).)))
-27.7 kcal/mol

Now this one: GCCCTGCCGAAAGGCGGC (((..(((....))))))
-9.83 kcal/mol

Entry to check: GATCTCACGAGAGATC ((((((....))))))
-39.5 kcal/mol

# iterate: GACTACCGAAAGGTGTC (((.(((....))))))
-21.6 kcal/mol

Can you handle GCCTACGGAAACGTAGAC (.(((((....))))).) next?
-18.1 kcal/mol

Param item: GGAGTGCGAAAGCATCC (((.(((....))))))
-17.1 kcal/mol

GATCCGAATGCGGATC ((((((....)))))) ?
-37.8 kcal/mol

// repeat for GATCGATAGATCGATC ((((((....)))))) and report
-18.9 kcal/mol

Consider next the sequence GTGAGCGAAAGCTAGCAC ((((((....)))..))) in the same way.
-11.4 kcal/mol

Again, but for GATCAGTGTCCTGATC ((((((....))))))
-36.2 kcal/mol

Subsequent entry: GCGTCTAACGC ((((...))))
-20.6 kcal/mol

// same read-out, input: GCGAACGGAAACGTTCAC (.(((((....))))).)
-14.4 kcal/mol

Further, for TGGTAGAAATACCA (((((....))))) ?
-12.8 kcal/mol

Try GACACCCCGAAAGGGGTC (((..(((....)))))) next.
-6.64 kcal/mol

Now consider GATCTGCACCAGATC ((((((...)))))) .
-41.8 kcal/mol

Now this one: GGGCTCCGAAAGGACCCC (((.(((....))).)))
-20.5 kcal/mol

Please give the result for GCGTTCAGACGC ((((....)))) too.
-23.8 kcal/mol

Entry to check: GCATCGCGAAAGCAAAGC ((.(.((....)).).))
-9.75 kcal/mol

Next entry: GGCCAGTCGAAAGACGCC (((..(((....))))))
-18.2 kcal/mol
